target: B-cell lymphoma 6 protein (Homo sapiens, UniProt P41182, C67R/C84N/C8Q); assay: Binding affinity to recombinant RED-NHS labelled BCL6 BTB domain (unknown origin) C8Q/C67R/C84N triple mutant expressed in Escherichia coli Rosetta BL21 (DE3) incubated for 30 mins under dark condition by microscale thermophoresis method; details: read-out: Kd(app)
Measured Attribute: Kd (µM)

INSERT INTO assay_data (structure_string, measured_attribute, experimental_value) VALUES
  ('CC[C@@H](C)[C@@H]1NC(=O)[C@H](CS)NC(=O)[C@H](C(C)C)NC(=O)[C@H](CS)NC(=O)[C@H](Cc2ccc(O)cc2)NC(=O)[C@H](Cc2ccc(O)cc2)NC1=O', 'Kd', 50);
